# Tested on: Ramos cells
# Protocol Text: In vitro cytotoxicity, Ramos cells
# Format: cell-based
# Measurement Conditions: Homo sapiens; free compounds with and without linker, Ramos cell line (Table 2); read-out: IC50, in vitro antiproliferative activity
pIC50: −log10 of the molar value.
Quantity: pIC50

compound COc1cc2c(cc1OCc1cccc(COc3cc4c(cc3OC)C(=O)N3c5ccccc5C[C@H]3C=N4)c1)N=C[C@@H]1Cc3ccccc3N1C2=O , pIC50 observed: > 12.00
